study-target: furin, P09958;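 note: purified furin at 1:10 enzyme:substrate in 50 mM HEPES pH 7.5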
Sequence (P09958 whole entry): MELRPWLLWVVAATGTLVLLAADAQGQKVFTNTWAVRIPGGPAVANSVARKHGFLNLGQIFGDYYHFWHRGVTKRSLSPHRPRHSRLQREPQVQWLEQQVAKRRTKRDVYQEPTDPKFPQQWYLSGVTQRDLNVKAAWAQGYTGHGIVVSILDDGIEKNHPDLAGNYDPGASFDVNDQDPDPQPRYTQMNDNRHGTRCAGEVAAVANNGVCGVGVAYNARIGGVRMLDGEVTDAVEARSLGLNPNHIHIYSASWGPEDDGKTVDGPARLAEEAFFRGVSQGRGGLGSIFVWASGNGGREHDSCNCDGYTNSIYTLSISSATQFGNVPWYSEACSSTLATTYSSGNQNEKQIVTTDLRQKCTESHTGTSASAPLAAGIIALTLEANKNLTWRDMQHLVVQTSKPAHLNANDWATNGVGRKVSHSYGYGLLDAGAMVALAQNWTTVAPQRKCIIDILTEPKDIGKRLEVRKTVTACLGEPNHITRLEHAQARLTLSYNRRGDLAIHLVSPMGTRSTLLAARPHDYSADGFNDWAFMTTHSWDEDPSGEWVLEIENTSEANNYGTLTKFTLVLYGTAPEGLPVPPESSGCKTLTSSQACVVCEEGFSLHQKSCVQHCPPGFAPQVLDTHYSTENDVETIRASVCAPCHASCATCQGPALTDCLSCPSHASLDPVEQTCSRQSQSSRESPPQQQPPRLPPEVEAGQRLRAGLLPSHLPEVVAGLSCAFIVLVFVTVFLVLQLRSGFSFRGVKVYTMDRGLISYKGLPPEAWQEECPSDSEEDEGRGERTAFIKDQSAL
assay-details: furin cleavage Z-score vs untreated control; higher = more cleavage, active = 3.5 or more, inactive = 1 or less, 8 variable residues between constant flanks
assay-context: 30 min
The list shows a part of the results. No count for the full screen is at hand.
Quick reference: furin cleavage Z-score of the listed items.
Number only, please.

Answered cases to consult:
// field: furin cleavage Z-score; key: CARARRGLRGAGNASASA [FS-1817] ; value = 3.32

// field: furin cleavage Z-score; key: CALPSRQKKAAGNASASA [FS-1365] ; value = 1.92

New cases:
// field: furin cleavage Z-score; key: CARARRGTSGAGNASASA [FS-2646] ; value = 5.55

// field: furin cleavage Z-score; key: CARARRDAGPAGNASASA [FS-3150] ; value = 7.77

// field: furin cleavage Z-score; key: CASIARQKRIAGNASASA [FS-562] ; value = 5.27
